# Experimental Details: Tmax in rat plasma
# Type: ADME, organism-based
Observable: Tmax (min)

1) Cc1cccc(CNC(=O)c2cc(-c3ccc(C)o3)nc(N)n2)n1 : 15
